Source listed as ChEMBL document CHEMBL1153564.

System: Mus musculus
Assay: Cmax in serum of neutropenic ICR/Swiss mouse candidiasis model at 80 mg/kg, ip up to 4 hrs by reverse-phase high-pressure liquid chromatography
Assay type: ADME, organism-based
Set-up: dose 80 mg/kg, route intraperitoneal
Settings: in vivo
Starred links: 1 amine or outer side, 2 acyl side, 3 side chain; linkers in the order of their positions; H or OH if unused. Positions of bridges follow the written chain, without caps; N, C: chain ends. Non-standard residues stand in square brackets, D forms with d. Residues, ends and D or L forms follow the SMILES beside them. *: point of attachment. pTerphenylCO(4''-OnC5H11) = CCCCCOc1ccc(-c2ccc(-c3ccc(C(=O)*)cc3)cc2)cc1; Orn(4R-OH,5R-OH) = O=C([C@H](C[C@@H](O)[C@@H](O)N[*:3])N[*:1])[*:2]; hTyr(3S-OH,4S-OH) = N[C@H](C(=O)O)[C@H](O)[C@@H](O)c1ccc(O)cc1; Pro(3S-OH,4S-Me) = C[C@H]1CN[C@H](C(=O)O)[C@H]1O; Hyp = O=C(O)[C@@H]1C[C@@H](O)CN1
experimental readout: Cmax
Reply with a number, then the unit it belongs to.

Bench note, Mus musculus: entry CCCCCOc1ccc(-c2ccc(-c3ccc(C(=O)N[C@H]4C[C@@H](O)[C@@H](O)NC(=O)[C@@H]5[C@@H](O)[C@@H](C)CN5C(=O)[C@H]([C@@H](C)O)NC(=O)[C@H]([C@H](O)[C@@H](O)c5ccc(O)cc5)NC(=O)[C@@H]5C[C@@H](O)CN5C(=O)[C@H]([C@@H](C)O)NC4=O)cc3)cc2)cc1 [ANIDULAFUNGIN] ({pTerphenylCO(4''-OnC5H11)}-[Orn(4R-OH,5R-OH)]T[Hyp][hTyr(3S-OH,4S-OH)]T[Pro(3S-OH,4S-Me)]; lactam 1-C) , its Cmax = 60 µg/mL

###

Assay: AUC (0 to infinity) in serum of neutropenic ICR/Swiss mouse candidiasis model at 20 mg/kg, ip by reverse-phase high-pressure liquid chromatography
Type: ADME, organism-based
Set-up: time infinity, dose 20 mg/kg, route intraperitoneal
Starred links: 1 amine or outer side, 2 acyl side, 3 side chain; linkers in the order of their positions; H or OH if unused. Positions of bridges follow the written chain, without caps; N, C: chain ends. Non-standard residues stand in square brackets, D forms with d. Residues, ends and D or L forms follow the SMILES beside them. *: point of attachment. pTerphenylCO(4''-OnC5H11) = CCCCCOc1ccc(-c2ccc(-c3ccc(C(=O)*)cc3)cc2)cc1; Orn(4R-OH,5R-OH) = O=C([C@H](C[C@@H](O)[C@@H](O)N[*:3])N[*:1])[*:2]; hTyr(3S-OH,4S-OH) = N[C@H](C(=O)O)[C@H](O)[C@@H](O)c1ccc(O)cc1; Pro(3S-OH,4S-Me) = C[C@H]1CN[C@H](C(=O)O)[C@H]1O; Hyp = O=C(O)[C@@H]1C[C@@H](O)CN1
experimental readout: AUC(0-inf)

GET /value?item= CCCCCOc1ccc(-c2ccc(-c3ccc(C(=O)N[C@H]4C[C@@H](O)[C@@H](O)NC(=O)[C@@H]5[C@@H](O)[C@@H](C)CN5C(=O)[C@H]([C@@H](C)O)NC(=O)[C@H]([C@H](O)[C@@H](O)c5ccc(O)cc5)NC(=O)[C@@H]5C[C@@H](O)CN5C(=O)[C@H]([C@@H](C)O)NC4=O)cc3)cc2)cc1 [ANIDULAFUNGIN] ({pTerphenylCO(4''-OnC5H11)}-[Orn(4R-OH,5R-OH)]T[Hyp][hTyr(3S-OH,4S-OH)]T[Pro(3S-OH,4S-Me)]; lactam 1-C) &field=AUC(0-inf) returns 382 µg·h/mL
